B1: TPR t1 (parent)
chain: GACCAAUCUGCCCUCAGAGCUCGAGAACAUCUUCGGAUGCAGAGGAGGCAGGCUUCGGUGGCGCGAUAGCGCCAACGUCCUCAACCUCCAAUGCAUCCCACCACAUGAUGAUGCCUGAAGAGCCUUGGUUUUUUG

- Variants of: B1
- assay_notes: polymerase ribozyme fitness, log enrichment relative to wild type (log ratio); higher = more active; in vitro selection for triplet polymerase activity
Hi, to clarify the labels: Condition met covers polymerase ribozyme fitness (log ratio) from -5 upward, Condition not met covers anything below -5.

[[record]]
variant_label = "C12A G113U"
class_label = "Condition met"

[[record]]
variant_label = "C53U G69A A91U G110A G113U G128U"
class_label = "Condition not met"

[[record]]
variant_label = "G17U C89G C104U"
class_label = "Condition met"

[[record]]
variant_label = "A6U G44C C72G G110A C115A"
class_label = "Condition met"

[[record]]
variant_label = "G47U C49G"
class_label = "Condition met"

[[record]]
variant_label = "G45U G47U G60A C98G"
class_label = "Condition not met"

[[record]]
variant_label = "G52U G69C"
class_label = "Condition met"

[[record]]
variant_label = "A68G U129A"
class_label = "Condition met"

[[record]]
variant_label = "U59G G77U G117A"
class_label = "Condition met"

[[record]]
variant_label = "C20G C76U G93C A95G C124A"
class_label = "Condition met"

[[record]]
variant_label = "A5G C15G U32A G63U U112C A119U"
class_label = "Condition not met"

[[record]]
variant_label = "C22G U32G C70G C124A"
class_label = "Condition not met"

